target: recombinant human PDE5 (Homo sapiens); experiment: Inhibitory effect on cGMP-PDE (PDE5 IC50 determination); conditions: in vitro, read-out: IC50 versus PDE5
observed property: IC50 (nM)

{"columns": ["compound", "IC50, nM"],
 "data": [
  ["CN1CC(=O)N2[C@@H](c3ccc4c(c3)OCO4)c3c([nH]c4ccccc34)C[C@@H]2C1=O", 125],
  ["CN1CC(=O)N2[C@H](c3ccc4c(c3)OCO4)c3c([nH]c4ccccc34)C[C@@H]2C1=O", 338]
]}

1 = CN1CC(=O)N2[C@H](c3ccc4c(c3)OCO4)c3[nH]c4ncccc4c3C[C@@H]2C1=O (racemic)
2 = CN1CC(=O)N2[C@H](c3ccc4c(c3)OCO4)c3sc4ccccc4c3C[C@@H]2C1=O (racemic)
Which has the smaller recorded IC50, 1 or 2 ? Identify your pick by its label.
1
